Each record here notes measured IC50.
- TARGET: CDK3/Cyclin E1 (Homo sapiens, UniProt Q00526)
- Sequence (Q00526 whole entry): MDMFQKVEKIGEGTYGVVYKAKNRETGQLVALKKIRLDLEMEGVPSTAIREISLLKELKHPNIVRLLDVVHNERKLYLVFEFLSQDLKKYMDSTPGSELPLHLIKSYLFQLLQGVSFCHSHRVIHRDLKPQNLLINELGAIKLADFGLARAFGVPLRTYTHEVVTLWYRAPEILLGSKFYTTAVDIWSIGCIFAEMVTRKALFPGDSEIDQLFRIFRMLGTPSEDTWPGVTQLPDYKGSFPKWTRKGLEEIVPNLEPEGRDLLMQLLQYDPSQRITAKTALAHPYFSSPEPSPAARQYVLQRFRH
- Sequence (P24864 whole entry partner): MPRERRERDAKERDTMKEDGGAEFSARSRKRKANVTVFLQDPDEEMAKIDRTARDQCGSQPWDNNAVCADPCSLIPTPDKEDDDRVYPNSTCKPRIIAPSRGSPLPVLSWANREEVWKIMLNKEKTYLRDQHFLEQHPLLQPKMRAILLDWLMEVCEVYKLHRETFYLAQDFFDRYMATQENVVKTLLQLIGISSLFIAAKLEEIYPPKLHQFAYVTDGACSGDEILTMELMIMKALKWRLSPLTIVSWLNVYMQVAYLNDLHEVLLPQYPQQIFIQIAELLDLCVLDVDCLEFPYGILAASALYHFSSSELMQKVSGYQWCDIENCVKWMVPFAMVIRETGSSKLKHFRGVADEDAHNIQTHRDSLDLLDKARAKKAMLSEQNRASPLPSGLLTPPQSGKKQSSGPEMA
- PROCEDURE_DETAILS: NanoBRET live-cell target engagement, CDK3-NanoLuc/Cyclin E1 in HEK-293
- Format: binding
- RUN_PARAMETERS: CDK3/E1; read-out: IC50 (nM) Replicate 2

COMPOUND	IC50 [nM]
CC(C)c1cnn2c(NCc3ccccc3)cc(N[C@@H](CO)[C@H](O)CO)nc12	8.6
CNC1CCN(C(=O)c2ccc(Nc3ncc(F)c(-c4cnc(C)n4C(C)C)n3)cc2)C1 (stereo not drawn)	5.2
CCCCOc1c(C(=O)c2c(F)cc(C)cc2F)c[nH]c2nncc1-2	14

----------
- TARGET: CDK20/Cyclin H (Homo sapiens)
- Sequence (Q8IZL9 whole entry): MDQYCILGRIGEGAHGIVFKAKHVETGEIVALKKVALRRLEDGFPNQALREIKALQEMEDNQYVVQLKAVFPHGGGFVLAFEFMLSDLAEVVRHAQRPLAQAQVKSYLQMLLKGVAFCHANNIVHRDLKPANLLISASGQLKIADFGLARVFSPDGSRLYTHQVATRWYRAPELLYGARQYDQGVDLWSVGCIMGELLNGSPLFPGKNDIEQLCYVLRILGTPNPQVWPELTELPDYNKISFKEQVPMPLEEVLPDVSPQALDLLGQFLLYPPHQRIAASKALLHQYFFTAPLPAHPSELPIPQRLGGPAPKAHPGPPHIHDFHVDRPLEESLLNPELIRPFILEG
- Sequence (P51946 whole entry partner): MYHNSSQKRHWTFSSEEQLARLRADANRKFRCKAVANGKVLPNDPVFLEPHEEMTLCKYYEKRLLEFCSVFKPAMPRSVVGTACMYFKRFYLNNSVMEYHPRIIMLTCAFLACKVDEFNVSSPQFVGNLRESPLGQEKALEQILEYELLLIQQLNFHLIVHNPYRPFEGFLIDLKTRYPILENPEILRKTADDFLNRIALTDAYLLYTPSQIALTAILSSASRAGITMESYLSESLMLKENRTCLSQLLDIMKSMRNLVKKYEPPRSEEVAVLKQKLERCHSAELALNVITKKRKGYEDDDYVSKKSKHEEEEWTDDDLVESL
- PROCEDURE_DETAILS: NanoBRET live-cell target engagement, NanoLuc-CDK20/Cyclin H in HEK-293
- Assay type: binding
- RUN_PARAMETERS: 10µM; independent experiment 2; read-out: CDK20/H Inhibition at 10µM (%)
QUANTITY_KIND: inhibition at 10 µM

MOL	OBS_VALUE
CC(C)[C@H](CO)Nc1nc(Nc2ccc(C(=O)O)c(Cl)c2)c2ncn(C(C)C)c2n1	-1.2%
CN(C)C(=O)c1cc2cnc(Nc3ccc(N4CCNCC4)cn3)nc2n1C1CCCC1	1.2%
CC(C)CC(=O)Nc1[nH]nc2c1CN(C(=O)C1CCN(C)CC1)C2(C)C	16.7%
CN1C/C=C/CCOc2cccc(c2)-c2ccnc(n2)Nc2cccc(c2)C1	82.8%
CN1CCN(c2ccc(Nc3ncc4cc5n(c4n3)C3(CCCCC3)CNC5=O)nc2)CC1	5.6%
CN(C)C/C=C/C(=O)Nc1ccc(C(=O)N2CCC[C@@H](Nc3ncc(Cl)c(-c4c[nH]c5ccccc45)n3)C2)cc1	52.4%
CC(=O)c1c(C)c2cnc(Nc3ccc(N4CCNCC4)cn3)nc2n(C2CCCC2)c1=O	4.3%

----------
- TARGET: CDK9/Cyclin K (Homo sapiens, UniProt P50750)
- Sequence (P50750 whole entry): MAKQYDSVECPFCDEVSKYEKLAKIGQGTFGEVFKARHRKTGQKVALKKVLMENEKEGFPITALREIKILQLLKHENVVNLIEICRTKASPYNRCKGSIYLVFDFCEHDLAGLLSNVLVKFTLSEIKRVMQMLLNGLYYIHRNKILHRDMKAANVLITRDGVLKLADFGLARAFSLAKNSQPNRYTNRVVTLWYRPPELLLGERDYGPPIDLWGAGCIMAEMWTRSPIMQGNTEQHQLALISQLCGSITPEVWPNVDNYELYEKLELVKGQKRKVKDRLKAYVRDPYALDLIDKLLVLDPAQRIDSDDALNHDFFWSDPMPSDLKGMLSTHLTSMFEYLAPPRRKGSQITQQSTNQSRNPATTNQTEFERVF
- Sequence (O75909 whole entry partner): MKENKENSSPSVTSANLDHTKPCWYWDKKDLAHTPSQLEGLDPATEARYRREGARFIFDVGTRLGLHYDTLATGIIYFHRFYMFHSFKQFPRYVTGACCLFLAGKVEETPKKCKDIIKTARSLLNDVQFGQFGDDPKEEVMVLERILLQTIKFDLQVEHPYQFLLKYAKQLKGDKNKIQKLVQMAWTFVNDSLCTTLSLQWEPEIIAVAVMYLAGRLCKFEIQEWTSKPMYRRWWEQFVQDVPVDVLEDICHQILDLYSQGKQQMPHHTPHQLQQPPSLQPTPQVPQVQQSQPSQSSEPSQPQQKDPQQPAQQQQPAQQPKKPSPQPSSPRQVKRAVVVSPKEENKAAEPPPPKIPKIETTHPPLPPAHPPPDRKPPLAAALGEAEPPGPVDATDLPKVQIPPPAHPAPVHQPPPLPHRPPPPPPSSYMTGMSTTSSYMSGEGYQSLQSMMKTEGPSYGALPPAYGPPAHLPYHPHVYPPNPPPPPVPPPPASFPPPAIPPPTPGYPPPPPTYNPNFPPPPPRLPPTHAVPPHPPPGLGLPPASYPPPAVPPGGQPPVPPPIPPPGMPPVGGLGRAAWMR
- PROCEDURE_DETAILS: NanoBRET live-cell target engagement, NanoLuc-CDK9/Cyclin K in HEK-293
- Assay type: binding
- RUN_PARAMETERS: CDK9/K; average (± SEM where n=3)
pIC50: −log10 of the molar value.

COMPOUND	pIC50
COc1ccc(F)cc1-c1cc(NC(=O)C2CCCNC2)ncc1Cl (stereo not shown)	8.46

----------
- TARGET: CDK11A/Cyclin L2 (Homo sapiens, UniProt Q9UQ88)
- Sequence (Q9UQ88 1-783): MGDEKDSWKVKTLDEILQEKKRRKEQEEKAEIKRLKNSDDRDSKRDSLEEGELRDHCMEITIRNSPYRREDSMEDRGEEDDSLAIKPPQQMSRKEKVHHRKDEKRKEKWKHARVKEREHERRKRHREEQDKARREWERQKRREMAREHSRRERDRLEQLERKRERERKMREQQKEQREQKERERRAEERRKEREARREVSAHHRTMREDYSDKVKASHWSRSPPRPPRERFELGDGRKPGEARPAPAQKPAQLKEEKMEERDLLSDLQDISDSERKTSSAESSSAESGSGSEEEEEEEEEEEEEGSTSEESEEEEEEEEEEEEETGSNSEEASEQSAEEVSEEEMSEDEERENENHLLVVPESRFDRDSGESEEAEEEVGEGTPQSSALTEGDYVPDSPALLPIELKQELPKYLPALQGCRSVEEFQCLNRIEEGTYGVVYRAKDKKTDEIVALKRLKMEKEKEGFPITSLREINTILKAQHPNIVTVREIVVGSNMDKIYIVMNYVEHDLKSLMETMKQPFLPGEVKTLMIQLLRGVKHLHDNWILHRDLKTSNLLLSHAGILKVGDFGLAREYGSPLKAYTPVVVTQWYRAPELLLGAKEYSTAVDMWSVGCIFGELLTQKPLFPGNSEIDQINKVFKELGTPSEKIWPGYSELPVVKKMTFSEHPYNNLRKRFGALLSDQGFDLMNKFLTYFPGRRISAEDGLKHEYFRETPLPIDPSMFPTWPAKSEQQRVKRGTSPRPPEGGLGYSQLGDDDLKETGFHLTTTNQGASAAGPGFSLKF
- PROCEDURE_DETAILS: NanoBRET live-cell target engagement, CDK11A-NanoLuc/Cyclin L2 in HEK-293
- Type: binding
- RUN_PARAMETERS: average (± SEM where n=3); read-out: CDK11a/L2 IC50
pIC50: −log10 of the molar value.

MOL	pIC50
CN1C/C=C/CCOc2cccc(c2)-c2ccnc(n2)Nc2cccc(c2)C1	6.72

The reported numbers originate from paper PMC7265341.
